# assay-overview: inhibitors of SNCA 5'UTR-driven reporter translation, confirmation, H4 neuroglioma cells, luminescence (AID 1988)
# Assay type: functional, cell-based
Activity calls are given as the source filed them.
The reader will find reported EC50 values listed item by item below.
outcome-measure: EC50

COc1ccc(-c2cc(C)no2)cc1S(=O)(=O)N1CCOc2ccccc21    31.4 µM (active)
CCc1ccc(CNC(=O)C2CCN(S(=O)(=O)N3CC(C)CC(C)C3)CC2)cc1 (stereo not drawn)    93.3 µM (active)
C[C@@]12C(=O)N(Cc3ccccc3)CC(=O)N1[C@H](/C=C/c1ccccc1)[C@@H]1C(=O)N(c3ccccc3)C(=O)[C@@H]12    14.9 µM (active)

###

# target-of-assay: Peroxisome proliferator-activated receptor gamma/Nuclear receptor corepressor 2 (Homo sapiens, UniProt P37231+Q9Y618)
# Sequence (P37231 whole entry): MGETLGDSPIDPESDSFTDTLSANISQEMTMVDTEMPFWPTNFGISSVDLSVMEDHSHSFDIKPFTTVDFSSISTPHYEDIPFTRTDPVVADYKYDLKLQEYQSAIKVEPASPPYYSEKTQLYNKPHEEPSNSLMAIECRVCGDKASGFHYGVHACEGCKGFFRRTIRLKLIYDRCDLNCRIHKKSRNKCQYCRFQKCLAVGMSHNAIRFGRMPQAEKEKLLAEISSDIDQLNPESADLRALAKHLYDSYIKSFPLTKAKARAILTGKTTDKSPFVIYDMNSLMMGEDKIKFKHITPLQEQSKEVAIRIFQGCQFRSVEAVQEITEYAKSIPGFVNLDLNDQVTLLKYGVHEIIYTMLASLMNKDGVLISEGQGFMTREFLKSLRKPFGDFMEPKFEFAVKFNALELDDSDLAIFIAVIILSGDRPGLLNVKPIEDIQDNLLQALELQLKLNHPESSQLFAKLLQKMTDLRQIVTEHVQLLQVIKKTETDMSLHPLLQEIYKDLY
# Sequence (Q9Y618 whole entry): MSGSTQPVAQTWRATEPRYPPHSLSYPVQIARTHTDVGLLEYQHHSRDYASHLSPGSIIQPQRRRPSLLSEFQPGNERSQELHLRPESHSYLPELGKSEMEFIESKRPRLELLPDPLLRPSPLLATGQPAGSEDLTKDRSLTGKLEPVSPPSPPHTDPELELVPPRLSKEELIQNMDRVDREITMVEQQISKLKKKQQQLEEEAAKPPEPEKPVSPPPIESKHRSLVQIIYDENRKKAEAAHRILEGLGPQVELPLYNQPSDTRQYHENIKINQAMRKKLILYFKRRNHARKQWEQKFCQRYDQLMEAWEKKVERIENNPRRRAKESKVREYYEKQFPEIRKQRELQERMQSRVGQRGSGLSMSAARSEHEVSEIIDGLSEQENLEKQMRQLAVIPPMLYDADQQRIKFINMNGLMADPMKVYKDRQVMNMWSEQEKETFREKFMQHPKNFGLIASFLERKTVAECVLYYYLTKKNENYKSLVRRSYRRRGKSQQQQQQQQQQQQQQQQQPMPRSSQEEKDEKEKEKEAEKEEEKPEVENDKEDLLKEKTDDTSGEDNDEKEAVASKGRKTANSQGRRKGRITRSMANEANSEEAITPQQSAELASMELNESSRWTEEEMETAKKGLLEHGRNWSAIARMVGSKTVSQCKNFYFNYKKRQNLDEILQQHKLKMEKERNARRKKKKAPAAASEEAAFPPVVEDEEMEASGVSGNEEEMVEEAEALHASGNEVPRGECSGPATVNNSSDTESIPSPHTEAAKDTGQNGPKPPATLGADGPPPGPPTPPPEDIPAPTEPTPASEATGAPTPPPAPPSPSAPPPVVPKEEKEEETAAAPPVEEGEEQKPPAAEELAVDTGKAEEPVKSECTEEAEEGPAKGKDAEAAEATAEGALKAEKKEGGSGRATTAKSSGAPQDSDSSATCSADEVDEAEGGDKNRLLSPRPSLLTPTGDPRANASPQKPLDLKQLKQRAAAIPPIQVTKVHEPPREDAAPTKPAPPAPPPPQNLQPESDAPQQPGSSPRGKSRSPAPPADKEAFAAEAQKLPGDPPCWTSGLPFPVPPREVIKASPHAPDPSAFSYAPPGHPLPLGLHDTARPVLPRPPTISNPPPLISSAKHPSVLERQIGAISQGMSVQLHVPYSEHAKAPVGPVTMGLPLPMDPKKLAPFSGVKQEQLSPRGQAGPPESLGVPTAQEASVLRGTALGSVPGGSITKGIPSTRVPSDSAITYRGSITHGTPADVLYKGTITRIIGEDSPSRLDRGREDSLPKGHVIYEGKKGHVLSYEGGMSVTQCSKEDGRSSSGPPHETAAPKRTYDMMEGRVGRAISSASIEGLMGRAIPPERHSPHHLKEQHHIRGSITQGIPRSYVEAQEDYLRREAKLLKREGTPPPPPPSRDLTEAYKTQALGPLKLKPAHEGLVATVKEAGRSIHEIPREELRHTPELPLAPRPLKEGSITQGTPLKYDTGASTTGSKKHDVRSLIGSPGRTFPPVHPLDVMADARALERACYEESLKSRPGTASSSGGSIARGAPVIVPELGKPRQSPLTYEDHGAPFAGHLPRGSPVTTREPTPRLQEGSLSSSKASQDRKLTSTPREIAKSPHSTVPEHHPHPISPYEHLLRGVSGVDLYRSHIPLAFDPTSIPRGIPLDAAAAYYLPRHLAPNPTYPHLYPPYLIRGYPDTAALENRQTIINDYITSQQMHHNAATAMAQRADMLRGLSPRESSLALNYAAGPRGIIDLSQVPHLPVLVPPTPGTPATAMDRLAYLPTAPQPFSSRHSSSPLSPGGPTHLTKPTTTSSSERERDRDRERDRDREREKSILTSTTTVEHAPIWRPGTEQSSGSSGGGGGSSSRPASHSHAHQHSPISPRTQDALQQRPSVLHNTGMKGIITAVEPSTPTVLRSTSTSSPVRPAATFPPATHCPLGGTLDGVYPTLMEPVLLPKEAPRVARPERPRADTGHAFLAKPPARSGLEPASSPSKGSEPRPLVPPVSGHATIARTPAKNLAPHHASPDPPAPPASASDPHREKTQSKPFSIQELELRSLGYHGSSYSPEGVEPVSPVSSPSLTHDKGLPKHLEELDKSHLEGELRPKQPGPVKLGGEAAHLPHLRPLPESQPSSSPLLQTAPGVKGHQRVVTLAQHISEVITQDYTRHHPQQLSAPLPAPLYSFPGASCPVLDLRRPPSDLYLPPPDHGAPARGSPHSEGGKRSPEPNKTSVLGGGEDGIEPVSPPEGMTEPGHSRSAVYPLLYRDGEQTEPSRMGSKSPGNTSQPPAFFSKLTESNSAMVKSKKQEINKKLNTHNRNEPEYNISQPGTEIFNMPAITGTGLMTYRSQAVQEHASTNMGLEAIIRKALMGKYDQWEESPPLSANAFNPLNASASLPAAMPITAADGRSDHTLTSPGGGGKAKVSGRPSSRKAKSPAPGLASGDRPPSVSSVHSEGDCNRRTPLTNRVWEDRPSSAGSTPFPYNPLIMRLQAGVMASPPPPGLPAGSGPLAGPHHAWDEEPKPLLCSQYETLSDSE
# assay-overview: Counterscreen for NR2E3 inverse agonists: TR-FRET-based biochemical high throughput dose response assay to identify inverse agonists of the interaction between peroxisome proliferator-activated receptor gamma (PPARg) and nuclear receptor co-repressor 2 (NCOR2).
# Type: functional
Activity calls are given as the source filed them.
Reported IC50 values are given for each entry in this list.
outcome-measure: IC50

CCn1cnc2sc(C(=O)Nc3ccccc3OC)c(C)c2c1=O    4.9 µM (active)
O=C(Nc1cccc(-n2cnnn2)c1)c1cc2ccccc2o1    5.91 µM (active)
Cc1ccc2nc(-c3cc(-c4ccccc4)no3)cn2c1    > 39.8 µM (not active)
NS(=O)(=O)c1ccc(CNC(=O)c2cc(-c3ccccn3)nc3ccc(Cl)cc23)cc1    > 39.9 µM (not active)

###

# target-of-assay: Short transient receptor potential channel 4 (Mus musculus, UniProt Q9QUQ5)
# Sequence (Q9QUQ5 whole entry): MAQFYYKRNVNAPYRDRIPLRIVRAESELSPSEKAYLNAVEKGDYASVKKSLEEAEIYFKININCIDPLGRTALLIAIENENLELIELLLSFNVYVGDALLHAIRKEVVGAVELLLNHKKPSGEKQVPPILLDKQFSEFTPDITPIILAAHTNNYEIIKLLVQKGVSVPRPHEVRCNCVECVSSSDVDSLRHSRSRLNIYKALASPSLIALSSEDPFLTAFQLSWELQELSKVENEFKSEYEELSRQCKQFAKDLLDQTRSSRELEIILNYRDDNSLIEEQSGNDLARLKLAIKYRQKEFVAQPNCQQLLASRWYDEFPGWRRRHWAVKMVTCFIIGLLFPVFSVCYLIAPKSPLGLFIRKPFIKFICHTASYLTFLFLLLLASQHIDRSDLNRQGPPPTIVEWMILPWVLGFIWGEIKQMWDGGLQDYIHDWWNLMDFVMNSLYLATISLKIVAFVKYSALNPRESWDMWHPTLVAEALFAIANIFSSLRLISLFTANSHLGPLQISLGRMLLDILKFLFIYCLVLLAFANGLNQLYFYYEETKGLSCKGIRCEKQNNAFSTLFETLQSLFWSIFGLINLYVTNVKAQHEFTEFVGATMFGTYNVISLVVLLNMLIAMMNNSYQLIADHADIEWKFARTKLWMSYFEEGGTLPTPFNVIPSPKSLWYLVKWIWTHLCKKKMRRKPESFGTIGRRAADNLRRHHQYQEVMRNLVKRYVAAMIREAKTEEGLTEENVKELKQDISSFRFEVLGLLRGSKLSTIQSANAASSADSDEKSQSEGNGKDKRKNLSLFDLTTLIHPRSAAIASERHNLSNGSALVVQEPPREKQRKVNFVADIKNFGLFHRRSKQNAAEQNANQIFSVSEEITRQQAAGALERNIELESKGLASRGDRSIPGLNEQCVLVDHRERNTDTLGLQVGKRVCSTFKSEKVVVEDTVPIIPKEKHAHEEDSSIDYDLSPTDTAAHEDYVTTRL
# assay-overview: mouse TRPC4 channel inhibitors, dose response, cell-based, HEK293 TRPC4/mu-opioid, Fluo-4 calcium (AID 434942);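 further: potency of inhibitors blocking the TRPC4 calcium response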
# Format: functional
The source made the active and inactive calls.
outcome-measure: EC50

CN1CCN(Cc2c[nH]nc2-c2ccc(F)cc2F)[C@@H](c2ccccc2)C1    4.22 µM (active)
OCCNc1nc2ccccc2n1CCN1CCCCC1    3.35 µM (active)
c1csc(CNc2nc(-c3cccs3)nc3ccccc23)c1    4.73 µM (active)
COC(=O)c1ccc(Nc2cc(C)nc3ccccc23)cc1    3.76 µM (active)
COCCn1c(SCc2ccccc2F)nc2ccccc2c1=O    1.88 µM (active)
CN(C)C(CNC(=O)c1cc2ccccc2oc1=O)c1ccccc1 (stereo unspecified)    0.149 µM (active)

###

# assay-overview: microbe, parasite or virus in culture
# Format: functional
# particulars: Mycobacterium tuberculosis
Calls of active or inactive are those of the source.
outcome-measure: CC50

O=[N+]([O-])c1cc([N+](=O)[O-])c2c(Nc3ccccc3)n(-c3ccccc3)[n+]([O-])c2c1    29.7 µM (active)
CCCCCCCC(=O)N/N=C(/C)c1c(O)cc(C)oc1=O    > 40 µM (active)
CC(C)OC(=O)/C(C#N)=C/c1ccc(-c2ccc(SC(F)F)cc2)o1    > 40 µM (active)
O=C(/C=C/c1ccco1)Nc1cccc(-c2nc3ccccc3[nH]2)c1    30.8 µM (active)

###

Dear all, this message contains AC50 results, target or system Cytochrome P450 2D6 (Homo sapiens).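 Further: CYP2D6 member of a cytochrome P450 panel assay.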
outcome-measure: AC50

O=C(Oc1ccccc1)N1CCC[C@@]2(CCN(Cc3ccccc3)C2)C1    20 µM (inconclusive)
O=C(c1cnc(N2CCN(c3ncccn3)CC2)c2ccccc12)N1CCN(c2ncccn2)CC1    11.2 µM (inconclusive)
CC(C)n1nnnc1SCC(=O)NCc1ccc2c(c1)OCO2    25.1 µM (inconclusive)

###

EC50 by entry:
# assay-overview: Luminescence Cell-Based Dose Response HTS to Identify Activators of Luciferase Translation or Activity in H4 […] Cells. [Related pubchem assays: 1829 (Project Summary), 1814 (Primary HTS)]
# Type: functional
Activity calls are given as the source filed them.
outcome-measure: EC50

Cc1nc(-c2ccc(S(=O)(=O)Oc3ccccc3Cl)s2)cs1    12 µM (active)
CCCn1nc(NC(=O)COC)c2cc3cc(C)ccc3nc21    12.9 µM (active)
CC1=NN(c2ccccc2)C(=O)/C1=C/c1cc2cc(C)ccc2nc1N1CCCCC1    17.1 µM (active)
Cc1nc2c(C(=O)N3CCCCC3)cnn2c(C)c1Cc1ccccc1F    < 0.1 µM (active)

###

# target-of-assay: Corticotropin-releasing factor receptor 2/Corticotropin-releasing factor-binding protein (Homo sapiens, UniProt P24387+Q13324)
# Sequence (Q13324 whole entry): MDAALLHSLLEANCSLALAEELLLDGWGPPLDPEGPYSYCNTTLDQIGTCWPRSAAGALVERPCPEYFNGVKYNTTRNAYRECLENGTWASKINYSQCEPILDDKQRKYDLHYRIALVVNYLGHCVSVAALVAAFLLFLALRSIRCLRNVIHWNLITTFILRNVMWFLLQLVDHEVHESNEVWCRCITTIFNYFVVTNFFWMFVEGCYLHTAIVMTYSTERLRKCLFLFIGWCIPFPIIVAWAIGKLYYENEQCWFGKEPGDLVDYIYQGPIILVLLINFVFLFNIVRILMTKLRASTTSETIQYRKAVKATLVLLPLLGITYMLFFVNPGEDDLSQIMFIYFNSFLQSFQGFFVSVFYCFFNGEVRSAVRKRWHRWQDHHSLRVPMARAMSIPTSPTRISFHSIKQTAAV
# Sequence (P24387 whole entry): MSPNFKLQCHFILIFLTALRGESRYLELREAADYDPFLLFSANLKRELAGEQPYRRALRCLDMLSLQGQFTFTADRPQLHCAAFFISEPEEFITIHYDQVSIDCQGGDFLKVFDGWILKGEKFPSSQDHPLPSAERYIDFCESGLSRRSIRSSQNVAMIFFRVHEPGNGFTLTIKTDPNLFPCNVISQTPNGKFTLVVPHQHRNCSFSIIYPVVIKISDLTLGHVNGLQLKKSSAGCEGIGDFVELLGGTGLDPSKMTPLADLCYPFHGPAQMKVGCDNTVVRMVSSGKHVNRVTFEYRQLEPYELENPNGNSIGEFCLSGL
# assay-overview: activators of CRF receptor 2 with binding protein – uHTS hits, confirmation (AID 602473)
# Type: functional
# particulars: read-out: EC50_Mean
Activity calls are given as the source filed them.
outcome-measure: EC50

O=C(O)c1ccc(NC(=O)C2CCCCC2)cc1    > 53 µM (inactive)
COc1ccccc1-c1c(C)nn2c(N3CCN(c4ccccc4OC)CC3)cc(C)nc12    > 53 µM (inactive)
CC1CCC2=NN(C(=O)c3ccco3)C(O)(C(F)(F)F)C2C1 (centres undefined)    > 53 µM (inactive)
Cc1ccc(CN(C(=O)c2ccccc2[N+](=O)[O-])C2CCS(=O)(=O)C2)o1 (centres undefined)    > 53 µM (inactive)
O=C1c2ccccc2C(=O)N1c1ncc(Cc2ccc(Cl)cc2)s1    2.43 µM (active)
Cc1sc(NC(=O)C2CCCCC2C(=O)O)c(C(N)=O)c1-c1ccc(C(C)(C)C)cc1 (centres undefined)    5.33 µM (active)
CCOC(=O)c1c(-c2ccc(C)cc2)csc1NC(=O)/C(C#N)=C/c1ccc(O)c(OC)c1    2.87 µM (active)
C[C@H](NC(=O)Nc1ccc2c(c1)OCCO2)C(=O)O    > 53 µM (inactive)
CN1/C(=C\C=C(C#N)C#N)C(C)(C)c2ccccc21    10.8 µM (active)

###

# target-of-assay: Neuropeptide Y receptor type 2 (Homo sapiens);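 further: HEK293 cells expressing the receptor and a CNG channel; stimulus was NPY near EC95 followed by isoproterenol to raise cAMP; antagonist potency measured as restoring cAMP signal that NPY suppresses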
# Sequence (P49146 whole entry): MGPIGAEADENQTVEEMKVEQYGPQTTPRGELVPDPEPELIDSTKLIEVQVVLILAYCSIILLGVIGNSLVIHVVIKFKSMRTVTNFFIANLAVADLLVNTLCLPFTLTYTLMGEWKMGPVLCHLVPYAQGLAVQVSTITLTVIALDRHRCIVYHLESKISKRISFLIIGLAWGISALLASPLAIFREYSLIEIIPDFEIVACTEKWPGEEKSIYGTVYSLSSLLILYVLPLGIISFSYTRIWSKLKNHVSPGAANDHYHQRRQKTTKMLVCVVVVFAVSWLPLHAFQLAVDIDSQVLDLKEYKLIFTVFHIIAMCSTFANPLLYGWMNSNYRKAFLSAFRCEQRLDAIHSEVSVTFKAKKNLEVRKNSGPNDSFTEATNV
# Type: functional, cell-based
Active and inactive are the calls of the source.
outcome-measure: IC50

O=C(CCc1nc(-c2ccccc2)c(-c2ccccc2)o1)OCc1ccc(Br)cc1    15.1 µM (not active)
O=C(Nc1ccc(Cl)cc1)c1csc(-c2ccccc2)n1    10.1 µM (not active)
Cc1cccc(-n2ccnc2SCC(=O)N2CCCc3ccccc32)c1C    1.56 µM (active)
CC(C)OC(=O)/C(=C/c1ccc2c(c1)c1ccccc1n2C)NC(=O)c1ccccc1    14.7 µM (not active)

###

# target-of-assay: UniProt P0AE70
# Sequence (P0AE70 whole entry): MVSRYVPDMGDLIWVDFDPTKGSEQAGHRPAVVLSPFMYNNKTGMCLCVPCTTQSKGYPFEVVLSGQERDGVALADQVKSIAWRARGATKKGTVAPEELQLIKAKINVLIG
# assay-overview: fluorescent RNA oligo signal without MazF, dose response, counter-screen for MazEF activator project, biochemical, fluorescence, single-stranded RNase substrate (AID 588502)
# Format: functional
The source made the active and inactive calls.
Possible outcomes: class 1 = active, class 0 = inactive

CCOC(=O)Cn1/c(=N/C(=O)c2ccc([N+](=O)[O-])s2)sc2ccccc21    class 0
CC(C)OC(=O)/C(C#N)=C/c1ccc(-c2ccc(SC(F)F)cc2)o1    class 1
Cc1ccc(C(=O)Nc2cccc(C(=O)N/N=C/c3ccc(F)cc3)c2)cc1    class 0
COc1ccc(N/C=C\C(=O)c2ccc(C)cc2)cc1OC    class 0
